Below is a list of entries, each paired with its recorded IC50 value.
target: α2δ subunit derived from porcine brain tissue (Sus scrofa); construct: the α2δ subunit derived from porcine brain tissue was used; from tissue; host or cells: porcine brain tissue; assay: radioligand binding assay using [3H]gabapentin and the α2δ subunit; conditions: read-out: IC50 (μM) at α2δ Binding Site
Sequence (A0A287BIN3 25-1109): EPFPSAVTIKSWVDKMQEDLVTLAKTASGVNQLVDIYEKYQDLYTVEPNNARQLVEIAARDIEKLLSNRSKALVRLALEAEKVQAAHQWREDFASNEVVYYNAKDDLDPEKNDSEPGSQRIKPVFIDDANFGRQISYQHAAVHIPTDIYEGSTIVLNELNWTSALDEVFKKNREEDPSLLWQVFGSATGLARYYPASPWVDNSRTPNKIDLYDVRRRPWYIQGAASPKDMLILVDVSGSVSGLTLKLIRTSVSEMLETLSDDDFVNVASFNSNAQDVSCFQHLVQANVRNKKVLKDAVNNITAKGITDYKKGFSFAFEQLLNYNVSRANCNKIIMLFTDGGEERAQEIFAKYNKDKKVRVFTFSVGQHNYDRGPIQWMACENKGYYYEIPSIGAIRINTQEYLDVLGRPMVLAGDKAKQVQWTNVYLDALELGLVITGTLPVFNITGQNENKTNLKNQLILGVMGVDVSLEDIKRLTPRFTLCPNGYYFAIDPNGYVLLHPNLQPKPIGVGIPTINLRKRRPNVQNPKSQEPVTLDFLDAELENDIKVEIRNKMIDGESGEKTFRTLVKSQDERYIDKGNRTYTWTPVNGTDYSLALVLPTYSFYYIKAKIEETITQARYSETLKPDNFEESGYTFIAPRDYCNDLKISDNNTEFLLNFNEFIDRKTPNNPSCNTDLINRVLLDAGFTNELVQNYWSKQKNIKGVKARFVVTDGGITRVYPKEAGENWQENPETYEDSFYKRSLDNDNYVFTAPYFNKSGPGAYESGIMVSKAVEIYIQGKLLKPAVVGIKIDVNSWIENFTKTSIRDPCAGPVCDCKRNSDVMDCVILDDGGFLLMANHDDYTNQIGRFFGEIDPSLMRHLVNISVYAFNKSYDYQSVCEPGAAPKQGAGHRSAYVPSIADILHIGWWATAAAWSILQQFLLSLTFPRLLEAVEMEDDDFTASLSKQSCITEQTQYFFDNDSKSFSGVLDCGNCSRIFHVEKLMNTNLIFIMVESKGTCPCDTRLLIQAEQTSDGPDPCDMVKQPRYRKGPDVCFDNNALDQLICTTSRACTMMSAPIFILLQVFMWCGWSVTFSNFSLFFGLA
Structures can show the parent of a compound that is named as a salt.
Only the number, expressed in µM, is required.

Record excerpt, results attached:
Cl.O=C(O)[C@H]1CNCC12CCCCC2 [hydrochloride] | 0.16
O=C(O)C1CNCC12C1CCCC2CCC1 (stereo not drawn) | 0.57
O=C(O)C1CNCC12C1CC3CC(C1)CC2C3 (stereo not drawn) | 0.42
Cl.O=C(O)C1NCC12CCCCC2 (racemic) [hydrochloride] | 1.5

Query compound follows.
(Q) For the compound O=C(O)C1CNCC12CCCCC2 (racemic) [hydrochloride] , give its measured IC50 value.
(A) 0.35
